- Test system: Botrytis cinerea (B05.10)
- Test: Resazurin antifungal assay of 180 alpha-factor peptide variants towards Botrytis (Example 2)
- Format: cell-based
- Measurement Parameters: % inhibition of fungal growth, Botrytis conidia, peptide 100 μM, resazurin
Peptide text beside a SMILES is read from it.
Readout Type: Inhibition at 100 μM (%)
Give just the number in %; leave the unit off.

Challenge: Consider the compound CSCC[C@H](NC(=O)[C@@H]1CCCN1C(=O)[C@H](CCC(N)=O)NC(=O)CNC(=O)[C@@H]1CCCN1C(=O)[C@H](CCCCN)NC(=O)[C@H](Cc1ccccc1)NC(=O)[C@H](CCCNC(=N)N)NC(=O)[C@H](CC(C)C)NC(=O)[C@@H](NC(=O)[C@H](Cc1c[nH]cn1)NC(=O)[C@@H](N)Cc1c[nH]c2ccccc12)[C@@H](C)O)C(=O)N[C@@H](Cc1ccc(O)cc1)C(=O)O [compound 92] (H-WHTLRFKPGQPMY-OH; N-terminus and C-terminus assumed) and give its recorded Inhibition at 100 μM.
Response given: 98.95

Challenge: Consider the compound CSCC[C@H](NC(=O)[C@@H]1CCCN1C(=O)[C@H](CCC(N)=O)NC(=O)CNC(=O)[C@@H]1CCCN1C(=O)[C@H](CCCCN)NC(=O)[C@H](CC(C)C)NC(=O)[C@H](CCCNC(=N)N)NC(=O)[C@H](CC(C)C)NC(=O)[C@H](Cc1ccccc1)NC(=O)[C@H](Cc1c[nH]cn1)NC(=O)[C@@H]1CCCN1)C(=O)N[C@@H](Cc1ccc(O)cc1)C(=O)O [compound 112] (H-PHFLRLKPGQPMY-OH; N-terminus and C-terminus assumed) and give its recorded Inhibition at 100 μM.
Response given: 99.57

Challenge: Consider the compound CC[C@H](C)[C@H](NC(=O)[C@H](CCCNC(=N)N)NC(=O)[C@H](CC(C)C)NC(=O)[C@H](CCSC)NC(=O)[C@H](Cc1c[nH]cn1)NC(=O)[C@@H](N)CCCCN)C(=O)N[C@@H](CCCCN)C(=O)N1CCC[C@H]1C(=O)NCC(=O)N[C@@H](CCC(N)=O)C(=O)N1CCC[C@H]1C(=O)N[C@@H](CCSC)C(=O)N[C@@H](Cc1ccc(O)cc1)C(=O)O [compound 67] (H-KHMLRIKPGQPMY-OH; N-terminus and C-terminus assumed) and give its recorded Inhibition at 100 μM.
Response given: 100
